These entries and their values trace back to patent US20230242651A1.

Assayed Target: T1, human interleukin-23 receptor (IL23R) (human, UniProt Q5VWK5 24-355, limits assumed)
T1 construct: also called human IL23R
T1 sequence (looked up): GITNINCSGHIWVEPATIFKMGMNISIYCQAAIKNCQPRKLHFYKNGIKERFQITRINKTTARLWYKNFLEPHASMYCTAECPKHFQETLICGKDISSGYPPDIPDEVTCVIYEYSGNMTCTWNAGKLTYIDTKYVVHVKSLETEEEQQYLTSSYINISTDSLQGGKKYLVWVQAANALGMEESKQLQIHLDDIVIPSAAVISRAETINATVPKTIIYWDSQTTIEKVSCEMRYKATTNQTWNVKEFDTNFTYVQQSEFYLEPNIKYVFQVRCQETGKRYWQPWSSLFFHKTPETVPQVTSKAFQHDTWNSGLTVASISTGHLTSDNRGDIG
Assay Notes: SPR, scFv
Quick reference for Kd among some binders
Supply the numeric figure in pM, leaving out any unit text.

Some entries whose results are on file:
[
  {
    "Binder": "Vκ1/VH4 consensus (uncapped), human IL23R specific scFv (scFv, scFv VL-linker-VH, made in E. coli; Vκ framework IV (uncapped, full consensus); also called Vκ1VH4 uncapped) scFv: DIQMTQSPSSLSASVGDRVTITCQASENIYSFLAWYQQKPGKAPKLLIYSASKLAAGVPSRFSGSGSGTDFTLTISSLQPEDFATYYCQQTNRYSNPDIYNVFGQGTKVEIKRGGGGSGGGGSGGGGSGGGGSQVQLQESGPGLVKPSETLSLTCTVSGIDFNSNYYMCWIRQPPGKGLEWIGCIYVGSHVNTYYANWAKGRVTISVDTSKNQFSLKLSSVTAADTAVYYCATSGSSVLYFKFWGQGTLVTVSS",
    "Measured Result": 99.1
  },
  {
    "Binder": "Vκ1/VH1A consensus (uncapped), human IL23R specific scFv (scFv, scFv VL-linker-VH, made in E. coli; Vκ framework IV (uncapped, full consensus); also called Vκ1VH1A uncapped) scFv: DIQMTQSPSSLSASVGDRVTITCQASENIYSFLAWYQQKPGKAPKLLIYSASKLAAGVPSRFSGSGSGTDFTLTISSLQPEDFATYYCQQTNRYSNPDIYNVFGQGTKVEIKRGGGGSGGGGSGGGGSGGGGSQVQLVQSGAEVKKPGSSVKVSCKASGIDFNSNYYMCWVRQAPGQGLEWMGCIYVGSHVNTYYANWAKGRVTITADESTSTAYMELSSLRSEDTAVYYCATSGSSVLYFKFWGQGTLVTVSS",
    "Measured Result": 20
  },
  {
    "Binder": "Vκ2/VH1A consensus (uncapped), human IL23R specific scFv (scFv, scFv VL-linker-VH, made in E. coli; Vκ framework IV (uncapped, full consensus); also called Vκ2VH1A uncapped) scFv: DIVMTQSPLSLPVTPGEPASISCQASENIYSFLAWYLQKPGQSPQLLIYSASKLAAGVPDRFSGSGSGTDFTLKISRVEAEDVGVYYCQQTNRYSNPDIYNVFGQGTKVEIKRGGGGSGGGGSGGGGSGGGGSQVQLVQSGAEVKKPGSSVKVSCKASGIDFNSNYYMCWVRQAPGQGLEWMGCIYVGSHVNTYYANWAKGRVTITADESTSTAYMELSSLRSEDTAVYYCATSGSSVLYFKFWGQGTLVTVSS",
    "Measured Result": 222
  },
  {
    "Binder": "Vκ3/VH1A consensus λ-capped, human IL23R specific scFv (scFv, scFv VL-linker-VH, made in E. coli; also called Vκ3VH1A capped) scFv: DIVLTQSPATLSLSPGERATLSCQASENIYSFLAWYQQKPGQAPRLLIYSASKLAAGVPARFSGSGSGTDFTLTISSLEPEDFAVYYCQQTNRYSNPDIYNVFGGGTKLTVLGGGGGSGGGGSGGGGSGGGGSQVQLVQSGAEVKKPGSSVKVSCKASGIDFNSNYYMCWVRQAPGQGLEWMGCIYVGSHVNTYYANWAKGRVTITADESTSTAYMELSSLRSEDTAVYYCATSGSSVLYFKFWGQGTLVTVSS",
    "Measured Result": 585
  }
]

Sample Vκ1/VH1A consensus λ-capped, human IL23R specific scFv (scFv, scFv VL-linker-VH, made in E. coli; also called Vκ1VH1A capped) scFv: DIQMTQSPSSLSASVGDRVTITCQASENIYSFLAWYQQKPGKAPKLLIYSASKLAAGVPSRFSGSGSGTDFTLTISSLQPEDFATYYCQQTNRYSNPDIYNVFGGGTKLTVLGGGGGSGGGGSGGGGSGGGGSQVQLVQSGAEVKKPGSSVKVSCKASGIDFNSNYYMCWVRQAPGQGLEWMGCIYVGSHVNTYYANWAKGRVTITADESTSTAYMELSSLRSEDTAVYYCATSGSSVLYFKFWGQGTLVTVSS — what was its Kd?
166
